- Tested on: c-KIT V560G/D816V
- test-description: Proliferation inhibitory activity on Ba/F3 cell (CellTiter-Glo, 72 hours), c-KIT V560G/D816V
- Type: cell-based
- assay-setup: Mus musculus, BaF3, c-KIT V560G/D816V cells, read-out: Cell (nM) c-KIT V560G/D816V (GI50 class)
Catalogue of GI50 readings, one per entry.

Field: example entries. Status: answers known.
COc1cc2c(-c3ccc(NC(=O)Cn4cc(C(C)C)nn4)cc3)ncnc2cc1OCC1CCN(C)CC1 | > 500 nM
COc1cc2c(-c3ccc(NC(=O)CCc4ccccc4)cc3)ncnc2cc1OCC1CCNCC1 | 200 to 500 nM
COc1cc2c(-c3ccc(NC(=O)Cc4ccc(C(F)(F)F)cc4)cc3)ncnc2cc1OCCCN1C[C@@H]2C[C@H]1CN2C | ≤ 200 nM
COc1cc2ncnc(-c3ccc(NC(=O)Cc4ccc(C(F)(F)F)cc4)cc3)c2cc1OC1CNC1 | 200 to 500 nM
COc1cc2c(-c3ccc(NC(=O)Cc4ccc(C(F)(F)F)cc4)cc3)ncnc2cc1OCCCNC1CC1 | ≤ 200 nM

// query For `COc1cc2c(-c3ccc(NC(=O)Cc4cccc(C(F)(F)F)c4)cc3)ncnc2cc1OCC1CCNCC1` , write its GI50.
// result 200 to 500 nM

// query For `COCCN1CCC(COc2cc3ncnc(-c4ccc(NC(=O)Cc5ccc6c(c5)OCO6)cc4)c3cc2OC)CC1` , write its GI50.
// result ≤ 200 nM

###

- System: c-KIT V560G/D816V
- test-description: Proliferation inhibitory activity on Ba/F3 cell (CellTiter-Glo, 72 hours), c-KIT V560G/D816V
- Assay type: cell-based
- assay-setup: Mus musculus, BaF3, c-KIT V560G/D816V cells, read-out: Cell (nM) c-KIT V560G/D816V (GI50 class)
Catalogue of GI50 readings, one per entry.

COc1cc2c(-c3ccc(NC(=O)Cc4ccc(C(F)(F)F)cc4)cc3)ncnc2cc1OCCN1CCN(C)CC1 [Example 3] | ≤ 200 nM
CCN(CC)CCCOc1cc2ncnc(-c3ccc(NC(=O)Cc4ccc(C(F)(F)F)cc4)cc3)c2cc1OC [Example 11] | ≤ 200 nM
COc1cc2c(-c3ccc(NC(=O)Cn4cc(C(C)(C)C)nn4)cc3)ncnc2cc1OCC1CCN(C(C)=O)CC1 [Example 108] | > 500 nM

Consider now this further molecule.
// query For CCN1CCCC(COc2cc3ncnc(-c4ccc(NC(=O)Cn5cc(C(C)C)nn5)cc4)c3cc2OC)C1 (stereo not shown) [Example 111] , write its GI50.
// result > 500 nM

###

- Tested on: c-KIT V560G/D816V
- test-description: Proliferation inhibitory activity on Ba/F3 cell (CellTiter-Glo, 72 hours), c-KIT V560G/D816V
- Type: cell-based
- assay-setup: Mus musculus, BaF3, c-KIT V560G/D816V cells, read-out: Cell (nM) c-KIT V560G/D816V (GI50 class)
Catalogue of GI50 readings, one per entry.

// query For COc1cc2c(-c3ccc(NC(=O)Cc4ccc(C(F)(F)F)cc4)cc3)ncnc2cc1OC1CNC1 [Example 24] , write its GI50.
// result > 500 nM

// query For COc1cc2c(-c3ccc(NC(=O)Cc4ccc(C(F)(F)F)nc4)cc3)ncnc2cc1OCC1CCN(C(C)C)CC1 [Example 121] , write its GI50.
// result ≤ 200 nM

// query For CCN1CCC(COc2cc3ncnc(-c4ccc(NC(=O)Cc5ccc(C(F)(F)F)nc5)cc4)c3cc2OC)CC1 [Example 63] , write its GI50.
// result ≤ 200 nM

// query For COCCN1CCC(COc2cc3ncnc(-c4ccc(NC(=O)Cc5ccc(C(F)(F)F)nc5)cc4)c3cc2OC)CC1 [Example 96] , write its GI50.
// result ≤ 200 nM

// query For COc1cc2c(-c3ccc(NC(=O)Cc4ccc(C(F)(F)F)cc4)cc3)ncnc2cc1OCCCN1C[C@H]2C[C@@H]1CN2C [Example 31] , write its GI50.
// result ≤ 200 nM

// query For COc1cc2c(-c3ccc(NC(=O)Cc4ccc(C(F)(F)F)nc4)cc3)ncnc2cc1OCC1CCN(C)CC1 [Example 101] , write its GI50.
// result ≤ 200 nM

// query For CCN1CC[C@@H](COc2cc3ncnc(-c4ccc(NC(=O)Cc5ccc(C(F)(F)F)cc5)cc4)c3cc2OC)C1 [Example 40] , write its GI50.
// result ≤ 200 nM

// query For COc1cc2ncnc(-c3ccc(NC(=O)Cc4ccc(C(F)(F)F)cc4)cc3)c2cc1OCCCN1CCN2CCCC2C1 (stereo not drawn) [Example 161] , write its GI50.
// result ≤ 200 nM

// query For COc1cc2c(-c3ccc(NC(=O)Cc4ccc(C(F)(F)F)cc4)cc3)ncnc2cc1OCCCN1CCN(C2CC2)CC1 [Example 142] , write its GI50.
// result ≤ 200 nM

// query For CCN1CCC[C@H](COc2cc3ncnc(-c4ccc(NC(=O)Cc5ccc(C(F)(F)F)cc5)cc4)c3cc2OC)C1 [Example 76] , write its GI50.
// result ≤ 200 nM

// query For COc1cc2c(-c3ccc(NC(=O)Cc4ccc(C(F)(F)F)cc4)cc3)ncnc2cc1OCCCN1CC(N(C)C)C1 [Example 22] , write its GI50.
// result ≤ 200 nM

// query For COc1cc2ncnc(-c3ccc(NC(=O)Cc4ccc(C(F)(F)F)cc4)cc3)c2cc1OCCCN1CCN(C2CC2)CC1 [Example 127] , write its GI50.
// result 200 to 500 nM

// query For COc1cc2c(-c3ccc(NC(=O)Cc4ccc(C(F)(F)F)cc4)cc3)ncnc2cc1OCc1cccnc1 [Example 29] , write its GI50.
// result ≤ 200 nM

// query For COc1cc2c(-c3ccc(NC(=O)Cc4ccc(C(F)(F)F)cc4)cc3)ncnc2cc1OCCn1cccn1 [Example 30] , write its GI50.
// result ≤ 200 nM

// query For COc1cc2c(-c3ccc(NC(=O)Cc4ccc(C(F)(F)F)cc4)cc3)ncnc2cc1OCCCN1CCN(C(C)=O)CC1 [Example 141] , write its GI50.
// result ≤ 200 nM

// query For COc1cc2c(-c3ccc(NC(=O)Cc4ccc(C(F)(F)F)cc4)cc3)ncnc2cc1OCC1CCN(C(=O)OC(C)(C)C)CC1 [Example 15] , write its GI50.
// result > 500 nM

// query For COc1cc2c(-c3ccc(NC(=O)Cc4ccc5c(c4)CCO5)cc3)ncnc2cc1OCCCN1CCN(C)CC1 [Example 85] , write its GI50.
// result 200 to 500 nM

// query For COCCOc1cc2ncnc(-c3ccc(NC(=O)C(C)(N)c4ccc(F)cc4)cc3)c2cc1OCCOC (stereo not drawn) [Example 58] , write its GI50.
// result > 500 nM

// query For CCN1CCC[C@@H](COc2cc3ncnc(-c4ccc(NC(=O)Cc5ccc(C(F)(F)F)cc5)cc4)c3cc2OC)C1 [Example 74] , write its GI50.
// result ≤ 200 nM

// query For CCN1CCCC(COc2cc3ncnc(-c4ccc(NC(=O)Cc5ccc(C(F)(F)F)nc5)cc4)c3cc2OC)C1 (stereo not drawn) [Example 110] , write its GI50.
// result ≤ 200 nM

// query For CCN1CCC(Oc2cc3c(-c4ccc(NC(=O)Cc5ccc(C(F)(F)F)cc5)cc4)ncnc3cc2OC)CC1 [Example 123] , write its GI50.
// result ≤ 200 nM

// query For COc1cc2c(-c3ccc(NC(=O)Cc4cccc(C(F)(F)F)c4)cc3)ncnc2cc1OCCCN1CCN(C)CC1 [Example 55] , write its GI50.
// result ≤ 200 nM

// query For COc1cc2c(-c3ccc(NC(=O)Cn4cc(C(C)(C)C)nn4)cc3)ncnc2cc1OCC1CCN(C)CC1 [Example 106] , write its GI50.
// result > 500 nM

// query For COc1cc2ncnc(-c3ccc(NC(=O)Cc4ccc(C(F)(F)F)cc4)cc3)c2cc1OC1CCNC1 (stereo not drawn) [Example 139] , write its GI50.
// result > 500 nM

###

Catalogue of GI50 readings, one per entry.
- Tested on: c-KIT V560G/D816V
- test-description: Proliferation inhibitory activity on Ba/F3 cell (CellTiter-Glo, 72 hours), c-KIT V560G/D816V
- Format: cell-based
- assay-setup: Mus musculus, BaF3, c-KIT V560G/D816V cells, read-out: Cell (nM) c-KIT V560G/D816V (GI50 class)

COc1cc2ncnc(-c3ccc(NC(=O)Cc4ccc(C(F)(F)F)cc4)cc3)c2cc1OCCCN1C[C@@H]2C[C@H]1CN2C | 200 to 500 nM
COc1cc2ncnc(-c3ccc(NC(=O)Cc4ccc(C(F)(F)F)cc4)cc3)c2cc1OCCCN1C[C@H]2C[C@@H]1CN2C | 200 to 500 nM

// query For `COc1cc2c(-c3ccc(NC(=O)Cc4ccc(C(F)(F)F)cc4)cc3)ncnc2cc1OC[C@H]1CCNC1` , write its GI50.
// result 200 to 500 nM
